- Test system: HCT-15
- protocol-details: Cytotoxicity against human HCT15 cells assessed as cell growth at 10 uM after 48 hrs by SRB assay relative to untreated control
- Assay type: functional
- setup-conditions: HCT-15, 48 h, read-out: Activity
result-type: growth at 10 µM (%)
# number only, unit % dropped from output

In the examples that follow, each entry is paired with its recorded growth at 10 µM.
O=C1Nc2nc3ccccn3c2C(=O)[C@H](Cc2ccccc2)N1    94.6
COc1ccc(C2=Nc3nc4ccccn4c3C(=O)[C@H](Cc3ccccc3)N2)cc1    101
COc1ccc(C2=Nc3nc4ccccn4c3C(=O)[C@H](C)N2)cc1    85.2
C[C@@H]1NC(c2ccc(N(C)C)cc2)=Nc2nc3ccccn3c2C1=O    94.7
C[C@@H]1NC(c2ccc(Br)cc2)=Nc2nc3ccccn3c2C1=O    30.8

Report growth at 10 µM for Cc1ccc(C2=Nc3nc4ccccn4c3C(=O)[C@H](C)N2)cc1 please.
71.9

Report growth at 10 µM for C[C@H]1NC(c2ccc(Br)cc2)=Nc2nc3ccccn3c2C1=O please.
97.1

Report growth at 10 µM for C[C@@H]1NC(c2ccccc2)=Nc2nc3ccccn3c2C1=O please.
104

Report growth at 10 µM for O=C1c2c(nc3ccccn23)NC(=O)N2CCC[C@@H]12 please.
99.9

Report growth at 10 µM for Cc1ccc(C2=Nc3nc4ccccn4c3C(=O)[C@H](Cc3ccccc3)N2)cc1 please.
78

Report growth at 10 µM for Cc1ccccc1C1=Nc2nc3ccccn3c2C(=O)[C@H](Cc2ccccc2)N1 please.
100

Report growth at 10 µM for O=C1c2c(nc3ccccn23)N=C(c2ccccc2)N2CCC[C@@H]12 please.
93.8

Report growth at 10 µM for Cc1ccc(C2=Nc3nc4ccccn4c3C(=O)[C@@H]3CCCN23)cc1 please.
95.3
